Protocol Notes: DUSP6 inhibitors restoring Erk phosphorylation by chemical complementation, primary imaging in DUSP6-transfected HeLa (AID 609)
Recorded Conditions: HeLa MKP-3 transfected, phospho-Erk imaging KS statistic; measured here: cell density z-score; at 10 µM; cells stimulated with TPA for 15 min
Please map values of z-score to classes as shown: class 1: < -0.5; class 2: ≥ -0.5 and < 0.6; class 3: ≥ 0.6

1. CCCCCOc1ccccc1C(=O)NCC(=O)O    class 3

*Q* Exam item: assign Cc1nc2c(o1)CCc1ccccc1C2N1CCN(C)CC1 (stereo not drawn) to the correct category.
*A* class 3

*Q* Exam item: assign CC(C)OC(=O)CCNc1n[nH]c(=O)[nH]c1=O to the correct category.
*A* class 3

*Q* Exam item: assign CCC(NC(=O)Nn1cnnc1)(C(F)(F)F)C(F)(F)F to the correct category.
*A* class 2

*Q* Exam item: assign CCCC1C(c2ccc(OC)cc2)C(C#N)(C#N)C2(C#N)CC1(N)NC2=O (stereo not drawn) to the correct category.
*A* class 1

*Q* Exam item: assign Clc1ccc(-n2ncc3c(NCc4cccs4)ncnc32)cc1 to the correct category.
*A* class 2

*Q* Exam item: assign O=C1CC(c2ccccc2)n2nc(NS(=O)(=O)c3ccccc3)nc2N1 (stereo not drawn) to the correct category.
*A* class 3

*Q* Exam item: assign CCOC(=O)c1ccc(NC(=O)COc2ccccc2OC)cc1 to the correct category.
*A* class 3

*Q* Exam item: assign Cc1csc(SCCn2c(Br)nc3c2c(=O)[nH]c(=O)n3C)n1 to the correct category.
*A* class 2

*Q* Exam item: assign OC1(C2(O)CC(c3ccccc3)ON2)CCCCC1 (stereo not drawn) to the correct category.
*A* class 2
